biological target: hSTING R232 (Homo sapiens, UniProt Q86WV6, H232R); construct: host or cells: 293T-Dual hSTING R232 cells; test: 293T-Dual hSTING R232 cells, interferon-β expression (Quanti-Luc); type: cell-based; settings: 293T-Dual hSTING R232 cell line, 24 h, read-out: IFNb EC50
Sequence (Q86WV6 whole entry H232R): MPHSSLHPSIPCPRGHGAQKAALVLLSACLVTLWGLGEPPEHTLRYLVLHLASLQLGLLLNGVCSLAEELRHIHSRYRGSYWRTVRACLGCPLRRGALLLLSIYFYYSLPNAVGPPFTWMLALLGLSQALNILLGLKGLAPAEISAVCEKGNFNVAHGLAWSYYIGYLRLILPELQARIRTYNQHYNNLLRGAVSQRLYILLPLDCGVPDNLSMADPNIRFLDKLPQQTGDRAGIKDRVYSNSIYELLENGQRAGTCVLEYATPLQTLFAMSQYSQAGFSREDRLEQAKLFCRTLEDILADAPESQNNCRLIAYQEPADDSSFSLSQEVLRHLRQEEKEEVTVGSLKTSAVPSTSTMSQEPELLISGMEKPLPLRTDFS
assay endpoint: EC50 (nM)

INSERT INTO assay_data (compound, assayed_target, quantity_unit, endpoint_value) VALUES
  ('BP1(=O)OC[C@H]2O[C@@H](n3cnc4c(=O)[nH]c(N)nc43)[C@H](F)[C@@H]2OP(=O)(O)OCC2O[C@@H](n3cnc4c(N)ncnc43)[C@H](F)[C@@H]2O1 (some centres unmarked) [Compound G2]', 'hSTING R232 (Homo sapiens, UniProt Q86WV6, H232R)', 'nM', 1770),
  ('B[P@]1(=O)OC[C@H]2O[C@@H](n3cnc4c(N)ncnc43)[C@H](F)[C@@H]2OP(=O)(O)OC[C@H]2O[C@@H](n3cnc4c(N)ncnc43)[C@H](O1)C2F (some centres unmarked) [Compound I2]', 'hSTING R232 (Homo sapiens, UniProt Q86WV6, H232R)', 'nM', 11200),
  ('BP1(=O)OCC2O[C@@H](n3cnc4c(N)ncnc43)[C@H](F)[C@@H]2OP(=O)(S)OC[C@H]2O[C@@H](n3cnc4c(=O)[nH]c(N)nc43)[C@H](F)[C@@H]2O1 (single isomer, unassigned) [Compound C2]', 'hSTING R232 (Homo sapiens, UniProt Q86WV6, H232R)', 'nM', 430),
  ('BP1(=O)OCC2O[C@@H](n3cnc4c(N)ncnc43)[C@H](F)[C@@H]2OP(=O)(O)OC[C@H]2O[C@@H](n3cnc4c(=O)[nH]c(N)nc43)[C@H](F)[C@@H]2O1 (some centres unmarked) [Compound F2]', 'hSTING R232 (Homo sapiens, UniProt Q86WV6, H232R)', 'nM', 2780),
  ('BP1(=O)OC[C@H]2O[C@@H](n3cnc4c(=O)[nH]c(N)nc43)[C@H](F)[C@@H]2OP(=O)(S)OCC2O[C@@H](n3cnc4c(N)ncnc43)[C@H](F)[C@@H]2O1 (single isomer, unassigned) [Compound B4]', 'hSTING R232 (Homo sapiens, UniProt Q86WV6, H232R)', 'nM', 2270),
  ('BP1(=O)OCC2O[C@@H](n3cnc4c(N)ncnc43)[C@H](F)[C@@H]2OP(=O)(O)OC[C@H]2O[C@@H](n3cnc4c(=O)[nH]c(N)nc43)[C@H](F)[C@@H]2O1 (some centres unmarked) [Compound F1]', 'hSTING R232 (Homo sapiens, UniProt Q86WV6, H232R)', 'nM', 2440),
  ('B[P@]1(=O)OC[C@H]2O[C@@H](n3cnc4c(N)ncnc43)[C@H](F)[C@@H]2OP(=O)(O)OC[C@H]2O[C@@H](n3cnc4c(N)ncnc43)[C@H](O1)C2F (some centres unmarked) [Compound I1]', 'hSTING R232 (Homo sapiens, UniProt Q86WV6, H232R)', 'nM', 12800),
  ('[BH3-][P+]1(O)OCC2OC(n3cnc4c(N)ncnc43)C(OP(=O)(O)OCC3OC(n4cnc5c(N)ncnc54)C(F)C3O1)C2F (single isomer, unassigned) [Compound K2]', 'hSTING R232 (Homo sapiens, UniProt Q86WV6, H232R)', 'nM', 33000);
